Assay: Rat PK, single oral gavage
Format: in vivo
Details: rat, in vivo, single dose 0.1 mg/kg
observable: Tmax (h)
Note: unit h is implicit; provide only the numeric part.

Please review the following examples before continuing.
CC[C@H](C)C(=O)N1CCC(NC(=O)Nc2ccc(OC(F)(F)F)c(Cl)c2)CC1 ... 2.1
CCC(=O)N1CCC(NC(=O)Nc2ccc(OC(F)(F)F)cc2)CC1 [drawing 62] ... 2.3
O=C(Nc1ccc(C(F)(F)F)cc1)NC1CCN(C(=O)c2ccoc2)CC1 ... 3.4
O=C(Nc1ccc(OC(F)(F)F)c(F)c1)NC1CCN(C(=O)C2(C(F)(F)F)CC2)CC1 ... 4.3

Consider CC(C)C(=O)N1CCC(CC(=O)Nc2ccc(OC(F)(F)F)c(F)c2)CC1 . Its measured Tmax is 1.6

Entry O=C(Nc1ccc(OC(F)(F)F)c(F)c1)NC1CCN(C(=O)N2CCOCC2)CC1 — recorded Tmax = 2.9

Kindly note the recorded Tmax for O=C(Nc1ccc(C(F)(F)F)cc1)NC1CCN(C(=O)C2CCOCC2)CC1 , which is 2.5

So, CCOC(=O)N1CCC(NC(=O)Nc2ccc(OC(F)(F)F)c(F)c2)CC1 ? Its Tmax was 3.7
